Assign Median:FITC-A to each entry below.
- ASSAYED_TARGET: T1, HLA-A*02:01 on T2 cells alone (no peptide added) (human)
- T1 construct: TAP-deficient T2 cells without pulsed peptide; negative control target, and the HLA molecule whose stabilisation by peptides is read in the T2 stabilization assay; also called HLA-A*02 molecule; HLA-A2 molecule
- TEST_METHOD_NOTES: flow cytometry, phage on T2 without peptide; secondary only 121, unstained 106
Simply state the number, no unit and no words.

For this binder ( EXT017-21 scFv phage clone (scFv, also called phage clone #21) scFv: SYELTQPPSVSVAPGQTASMTCGGNNIGSKSVHWYQQKPSQAPVMVVHDDSERPSGIPERISGSKSGNTATLTISRVEAGDEADYYCQVWDSSSDHVIFGGGTKLTVLGSRGGGGSGGGGSGGGGSLEMAQVQLVQSGAEVKKPGASVKVSCKASGYTFTNYYIHWVRQAPGQGLEWMGIIRPSGGITNYAQKFQGRVSMTRDTSTSTVYMELSSLRSEDTAVYYCARSWMSDSYYDGWGQGTLVTVSSTSGQAGQHHHHHHGAYPYDVPDYAS ), measured Median:FITC-A is 147

For this binder ( EXT017-27 scFv phage clone (scFv, full-length scFv with His+HA tags; also called EXT017-27 phage; phage clone #27) scFv: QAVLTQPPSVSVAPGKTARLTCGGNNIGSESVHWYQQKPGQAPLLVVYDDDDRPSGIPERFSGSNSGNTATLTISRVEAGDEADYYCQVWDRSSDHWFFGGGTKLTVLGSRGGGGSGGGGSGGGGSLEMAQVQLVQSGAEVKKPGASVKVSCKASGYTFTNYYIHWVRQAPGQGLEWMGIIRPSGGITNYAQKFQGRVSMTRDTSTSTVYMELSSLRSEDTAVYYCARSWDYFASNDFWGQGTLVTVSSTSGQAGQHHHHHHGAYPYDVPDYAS ), measured Median:FITC-A is 150
